Every entry's value here was drawn from patent US20140308283A1.

// reported rate of increase in mean fluorescence intensity per item
Experimental System: T1, CAPRIN-1 protein expressed on the cell membrane surface of human cancer cell lines (human, UniProt Q14444 2-709)
T1 construct: whole, on cells; also called human CAPRIN-1; Cytoplasmic- and proliferation-associated protein 1
T1 sequence (looked up): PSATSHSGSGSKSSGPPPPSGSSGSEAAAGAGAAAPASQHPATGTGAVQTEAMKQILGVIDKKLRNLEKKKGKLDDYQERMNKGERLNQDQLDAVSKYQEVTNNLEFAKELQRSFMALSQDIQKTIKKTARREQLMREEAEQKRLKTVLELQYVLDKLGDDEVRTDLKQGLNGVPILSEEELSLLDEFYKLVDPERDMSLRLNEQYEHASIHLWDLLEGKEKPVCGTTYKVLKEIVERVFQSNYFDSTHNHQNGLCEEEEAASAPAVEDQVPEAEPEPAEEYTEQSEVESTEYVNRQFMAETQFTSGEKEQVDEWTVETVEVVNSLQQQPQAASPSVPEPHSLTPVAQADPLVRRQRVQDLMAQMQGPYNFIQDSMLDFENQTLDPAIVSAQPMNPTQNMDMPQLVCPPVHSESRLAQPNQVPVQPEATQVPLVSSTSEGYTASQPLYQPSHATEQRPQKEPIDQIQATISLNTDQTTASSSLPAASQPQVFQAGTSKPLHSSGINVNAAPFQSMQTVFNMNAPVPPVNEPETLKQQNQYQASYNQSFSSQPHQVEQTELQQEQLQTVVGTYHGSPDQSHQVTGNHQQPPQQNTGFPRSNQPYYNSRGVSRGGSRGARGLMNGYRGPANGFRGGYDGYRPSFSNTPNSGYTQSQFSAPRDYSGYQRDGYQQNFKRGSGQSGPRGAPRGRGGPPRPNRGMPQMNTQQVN
Assay Details: flow cytometry on Capan-2, MIAPaCa-2, PANC-1 and BxPC-3 cells, vs isotype control

# example entries with known answers
Binder | Test Result
mouse monoclonal antibody #4 (antibody, V domains shown, Mouse hybridoma antibody; also called anti-CAPRIN-1 mouse monoclonal antibody #4) VH: GAELVRSGASVKMSCKASGYSFTDYNMYWVKQTPGQGLEWIGYIYPGNGGTNYNQKFKGKATLTADTSSSTAYMQISSLTSEDSAVYFCARDYDDGGYAMDYWGQGTTVTVSS VL: DIQMTQSPASLSASVGETVTITCRASGNIHNYLTWYQQKQGKSPQLLVYNAKTLADGVPSRFSGSGSGTQYSLKINRLQPEDFGSYYCQHFWNIPWTFGGGTKLNSR | ≥ 20%
mouse-chicken chimeric antibody #3 (antibody, mouse IgG1, V domains shown, also called anti-CAPRIN-1 mouse-chicken chimeric antibody #3) VH: AVTLDESGGGLQTPGGALSLVCKASGFTFSGYDMLWVRQAPGKGLEWVAGIGSTGGGTDYGAAVKGRATISRDNGQSTVRLQLNNLRAEDTATYYCAKVAGGCNSGYCRDSPGSIDAWGHGTEVIVS VL: AVTQQPASVSANPGETVKITCSGGGSRNYYGWYQQKSPGSVPVTVIYYDDQRPSNIPSRFSGALSGSTSTLTITGVQADDEAVYFCGSADSNTYEGSFGAGTTLTVL | ≥ 20%
mouse-chicken chimeric antibody #2 (antibody, mouse IgG1, V domains shown, also called anti-CAPRIN-1 mouse-chicken chimeric antibody #2) VH: AVTLDESGGGLQTPGGGLSLVCKASGFTFSSFDMGWVRQAPGKGLEFVAQINDAGSRTWYATAVKGRATISRDNGQTTVRLQLNNLRAEDTGTYYCTRGSGYVGAGAIDAWGHGTEVIVS VL: AALTQPSSVSANPGETVKITCSGGSGYYGWYQQQKSPGSAPVTVIYQNDKRPSDIPSRFSGSGSGSTNTLTITGVQAEDEAVYFCGRYDSTDSGIFGAGTTLTVL | ≥ 20%

Query string: Could you share which rate of increase in mean fluorescence intensity value was measured for mouse-chicken chimeric antibody #1 (antibody, mouse IgG1, V domains shown, from CHO-K1 culture supernatant; also called anti-CAPRIN-1 mouse-chicken chimeric antibody #1) VH: AVTLDESGGGLQMSRGGLSLVCKASGFDFSSYQMNWIRQAPGKGLEFVAAINKFGNSTGHGAAVKGRVTISRDNGQSTVRLQLNNLRAEDTAIYFCTKHAYGYCGSGTWCAAGEIDAWGHGTEVIVSS VL: QAASTQPSSVSANPGETVEITCSGGGSYSYGWFQQKSPGSAPVTVIYYNNKRPSDIPSRFSGSKSGSTGTLTITGVQADDEAVYYCGSGDSTDTAVFGAGTTLTVLG ?
Result string: ≥ 20%

Query string: Could you share which rate of increase in mean fluorescence intensity value was measured for mouse monoclonal antibody #15 (antibody, V domains shown, Mouse hybridoma antibody; also called anti-CAPRIN-1 mouse monoclonal antibody #15) VH: EVQLHQFGAELVKPGASVKISCKASGYTFTDYNMDWVKQSHGKSLEWIGDINPNYDSTSYNQKFKGKATLTVDKSSSTAYMELRSLTSEDTAVYYCARSRSYDYEGFAYWGQGTLVTVSA VL: SGDRVSLSCRASQSISNYLHWYQQKSHESPRLLIKYASQSISGIPSRFSGSGSGTDFTLSINSVETEDFGMYFCQQSNSWPYTFGAGTKLEIKQ ?
Result string: ≥ 20%
